All figures here come from patent US20230295330A1.

Assign EC50 to each entry below.
Molecular target: T1, CD228 on A375 and A2058 cells (human, UniProt P08582 20-709)
T1 construct: whole, on cells; GPI-anchored cell surface protein; also called CD228 on A375 cells; CD228 on A2058 cells
T1 sequence (looked up): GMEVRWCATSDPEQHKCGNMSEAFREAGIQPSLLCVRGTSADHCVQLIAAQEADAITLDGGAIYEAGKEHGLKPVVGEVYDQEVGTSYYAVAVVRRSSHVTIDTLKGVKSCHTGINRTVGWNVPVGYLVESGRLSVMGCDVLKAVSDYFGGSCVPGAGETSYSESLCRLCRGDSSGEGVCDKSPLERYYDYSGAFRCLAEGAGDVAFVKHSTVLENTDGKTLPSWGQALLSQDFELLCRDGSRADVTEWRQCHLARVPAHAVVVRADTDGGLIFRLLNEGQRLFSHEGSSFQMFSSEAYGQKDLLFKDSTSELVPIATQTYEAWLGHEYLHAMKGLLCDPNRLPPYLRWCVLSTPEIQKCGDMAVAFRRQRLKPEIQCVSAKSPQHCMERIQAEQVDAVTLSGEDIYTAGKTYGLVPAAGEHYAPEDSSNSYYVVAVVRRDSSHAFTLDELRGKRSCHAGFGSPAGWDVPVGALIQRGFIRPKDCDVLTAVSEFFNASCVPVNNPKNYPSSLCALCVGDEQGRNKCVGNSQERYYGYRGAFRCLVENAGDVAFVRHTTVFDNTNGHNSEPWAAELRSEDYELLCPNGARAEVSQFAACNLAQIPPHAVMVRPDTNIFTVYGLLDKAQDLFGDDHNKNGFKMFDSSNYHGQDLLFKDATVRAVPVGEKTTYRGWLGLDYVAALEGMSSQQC
Assay: flow cytometry saturation binding on A375 cells (~18K receptors), neutral pH
One number for each entry, in nM.

binder	EC50 [nM]
hL49_27D_Tyr (antibody, V domains shown, hL49 variant with the light chain CDR-L1 histidine 27D changed to tyrosine) VH: QVQLQESGPGLVKPSETLSLTCTVSGDSITSGYWNWIRQPPGKGLEYIGYISDSGITYYNPSLKSRVTISRDTSKNQYSLKLSSVTAADTAVYYCARRTLATYYAMDYWGQGTLVTVSS VL: DFVMTQSPLSLPVTLGQPASISCRASQSLVYSDGNTYLHWYQQRPGQSPRLLIYRVSNRFSGVPDRFSGSGSGTDFTLKISRVEAEDVGVYYCSQSTHVPPTFGQGTKLEIK	1.1
hL49_3X_Tyr (antibody, V domains shown, hL49 triple mutant: all three light chain CDR histidines changed to tyrosine) VH: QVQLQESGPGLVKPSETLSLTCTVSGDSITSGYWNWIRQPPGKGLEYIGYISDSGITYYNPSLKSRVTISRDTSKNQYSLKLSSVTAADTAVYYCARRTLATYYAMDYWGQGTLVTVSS VL: DFVMTQSPLSLPVTLGQPASISCRASQSLVYSDGNTYLYWYQQRPGQSPRLLIYRVSNRFSGVPDRFSGSGSGTDFTLKISRVEAEDVGVYYCSQSTYVPPTFGQGTKLEIK	2.1

For each of the binders below, note its EC50.
1. hL49_34_Tyr (antibody, V domains shown, hL49 variant with the light chain CDR-L1 histidine 34 changed to tyrosine; also called hL49_H34Y; hL49_Tyr) VH: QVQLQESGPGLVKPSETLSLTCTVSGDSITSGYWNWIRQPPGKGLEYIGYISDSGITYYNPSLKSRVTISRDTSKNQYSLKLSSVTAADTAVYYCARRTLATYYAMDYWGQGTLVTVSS VL: DFVMTQSPLSLPVTLGQPASISCRASQSLVHSDGNTYLYWYQQRPGQSPRLLIYRVSNRFSGVPDRFSGSGSGTDFTLKISRVEAEDVGVYYCSQSTHVPPTFGQGTKLEIK
2. hL49_34_Gln (antibody, V domains shown, hL49 variant with the light chain CDR-L1 histidine 34 changed to glutamine) VH: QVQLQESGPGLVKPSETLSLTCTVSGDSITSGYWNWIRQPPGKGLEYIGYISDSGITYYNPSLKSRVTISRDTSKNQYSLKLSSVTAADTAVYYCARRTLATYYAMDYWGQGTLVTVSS VL: DFVMTQSPLSLPVTLGQPASISCRASQSLVHSDGNTYLQWYQQRPGQSPRLLIYRVSNRFSGVPDRFSGSGSGTDFTLKISRVEAEDVGVYYCSQSTHVPPTFGQGTKLEIK
3. hL49_27D_Ala (antibody, V domains shown, hL49 variant with the light chain CDR-L1 histidine 27D changed to alanine) VH: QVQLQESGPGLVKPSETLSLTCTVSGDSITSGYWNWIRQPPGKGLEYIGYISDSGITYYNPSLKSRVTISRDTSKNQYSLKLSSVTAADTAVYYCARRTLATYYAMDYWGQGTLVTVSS VL: DFVMTQSPLSLPVTLGQPASISCRASQSLVASDGNTYLHWYQQRPGQSPRLLIYRVSNRFSGVPDRFSGSGSGTDFTLKISRVEAEDVGVYYCSQSTHVPPTFGQGTKLEIK

1: 79; 2: 5.5; 3: 1.1
